All figures here come from PubChem BioAssay (NCI).

Test system: MOLT-4 leukemia
ASSAY OVERVIEW: NCI-60 one-dose screen, 48 h
CONDITIONS: 10 µM unless noted
The panel holds about 83,000 compounds, 20% with a hit somewhere; the sample as a whole holds those more often. Calls of active or inactive are those of the source. Rule for the calls: active = growth percent below 10; inactive = the rest.
Permitted responses: class 1 for active, class 0 for inactive

>  <COMPOUND>
CCC(CC)CC1(C)CC2(C)CCOC2OO1 (stereo unspecified)

>  <SYSTEM UNDER TEST>
MOLT-4 leukemia

>  <ANSWER LABEL>
class 0

$$$$
>  <COMPOUND>
Clc1ccc2nnnn2n1

>  <SYSTEM UNDER TEST>
MOLT-4 leukemia

>  <ANSWER LABEL>
class 0

$$$$
>  <COMPOUND>
CCC1(C)CC(CCNCc2ccccc2O)(c2ccc(C)cc2)CCO1 (stereo unspecified)

>  <SYSTEM UNDER TEST>
MOLT-4 leukemia

>  <ANSWER LABEL>
class 0

$$$$
>  <COMPOUND>
CCOC(=O)[C@@H](C)C[C@H](Cc1ccccc1)NC(=O)c1csc([C@@H](C[C@H](C(C)C)N(C)C(=O)CNC(=O)[C@H]2CCCCN2C)OC(C)=O)n1

>  <SYSTEM UNDER TEST>
MOLT-4 leukemia

>  <ANSWER LABEL>
class 0

$$$$
>  <COMPOUND>
O=C(Nc1ccc([As]=[As]c2ccc(NC(=O)c3ccccc3)cc2)cc1)c1ccccc1 (stereo unspecified)

>  <SYSTEM UNDER TEST>
MOLT-4 leukemia

>  <ANSWER LABEL>
class 1

$$$$

// next entry
[in] Query: recorded result category for Cc1ccc(S(=O)(=O)C(Cl)(Cl)Cl)cc1 in this test
[out] class 0

----------
Tested on: MALME-3M melanoma
ASSAY OVERVIEW: NCI-60 one-dose screen, 48 h
CONDITIONS: 10 µM unless noted
The panel holds about 83,000 compounds, 20% with a hit somewhere; the sample as a whole holds those more often. The source made the active and inactive calls. Rule for the calls: active = growth percent below 10; inactive = the rest.
Could you please pick one outcome from this set? active, inactive

See these solved cases before continuing.
>  <COMPOUND>
CCCCCCCCCCCCNC(c1ccccc1)C(O)c1ccccc1 (stereo not given)

>  <ANSWER LABEL>
inactive

$$$$
>  <COMPOUND>
C/C(Cc1ccc(Cl)cc1)=C(\c1ccc(OCCN2CCOCC2)cc1)c1ccc(OC(=O)Cc2ccccc2)cc1

>  <ANSWER LABEL>
inactive

$$$$
>  <COMPOUND>
CC1=C(CCCOC(=O)[C@H](N)CC(C)C)C2=C(C)C3(CC3)[C@@](C)(O)C(=O)C2=C1

>  <ANSWER LABEL>
active

$$$$
>  <COMPOUND>
COc1ccc(O)c(CNC(=O)CN2CCCC2=O)c1

>  <ANSWER LABEL>
inactive

$$$$

API: the following record is the query input.
[in] What call does the record list for C/C1=C/C(=O)O[C@@H]2C[C@@H](CC[C@H](C)/C=C\C=C\CC1)O[C@@](O)([C@@H]1CSC(=O)N1CO)C2 ?
[out] inactive

----------
growth reference
Tested on: MCF7 breast
ASSAY OVERVIEW: NCI-60 one-dose screen, 48 h (100 = growth as untreated, 0 = no growth, -100 = all killed)
CONDITIONS: 10 µM unless noted
The panel holds about 83,000 compounds, 20% with a hit somewhere; the sample as a whole holds those more often.
Express your answer in %, writing the number without its unit.

>  <COMPOUND>
CCCCCCCCCCCCNC(c1ccccc1)C(O)c1ccccc1 (stereo unspecified)

>  <DISPLAY UNIT>
%

>  <growth>
63.7

$$$$

Next up:
[in] Would you mind telling me what growth value was observed for NC(=Nc1ccccc1)N[N+](=O)[O-] ?
[out] 100
